# Tested on: epinephrine-increased blood-pressure (anti-α effect)
# Measurement protocol: Antiadrenergic effect: anti-α effect (reduction of epinephrine-increased blood-pressure); also: key: +: for a <50%-reduction of the increase in pressure or cardiac frequency; ++: for a ≥50%-reduction of the increase in pressure or cardiac frequency; +++: for a subtotal reduction of the increase in pressure or cardiac frequency
# Format: in vivo
# Experimental setup: dose 10 mg/kg i.v., dog
Property label: Anti-α effect

{"Compound": "CCCCN(CCCC)CCCOc1ccc(C(=O)c2c(-c3ccc(F)cc3)c(Br)c3ccccn23)cc1Br [Br/Br/H/drawing 23/n-C4H9/3]", "Anti-α effect": "+++"}
{"Compound": "CCCCN(CCCC)CCCOc1ccc(C(=O)c2c(CCC)c(C)c3ccccn23)cc1Br", "Anti-α effect": "+++"}
{"Compound": "CCCCN(CCCC)CCCOc1ccc(C(=O)c2c(CC)c(Br)c3ccccn23)cc1Br", "Anti-α effect": "+++"}
{"Compound": "CCCCN(CCCC)CCCOc1ccc(C(=O)c2c(-c3ccccc3)cc3ccccn23)cc1Br [H/Br/H/drawing 24/n-C4H9/3]", "Anti-α effect": "+++"}
{"Compound": "CCCCN(CCCC)CCCOc1ccc(C(=O)c2c(-c3ccc(Cl)cc3)c(Cl)c3ccccn23)cc1 [Cl/H/H/drawing 34/n-C4H9/3]", "Anti-α effect": "+++"}
{"Compound": "CCCN(CCC)CCCOc1ccc(C(=O)c2c(-c3cccc(Br)c3)c(Br)c3ccccn23)cc1Cl [Br/Cl/H/drawing 32/n-C3H7/3]", "Anti-α effect": "+++"}

Attention now turns to another entry.
Recorded Anti-α effect (compound CCCCN(CCCC)CCCOc1c(C)cc(C(=O)c2c(CC)c(I)c3ccccn23)cc1C ): +++
